experimental target: D(2) dopamine receptor (Homo sapiens) (UniProt P14416)
Sequence (P14416 whole entry, looked up): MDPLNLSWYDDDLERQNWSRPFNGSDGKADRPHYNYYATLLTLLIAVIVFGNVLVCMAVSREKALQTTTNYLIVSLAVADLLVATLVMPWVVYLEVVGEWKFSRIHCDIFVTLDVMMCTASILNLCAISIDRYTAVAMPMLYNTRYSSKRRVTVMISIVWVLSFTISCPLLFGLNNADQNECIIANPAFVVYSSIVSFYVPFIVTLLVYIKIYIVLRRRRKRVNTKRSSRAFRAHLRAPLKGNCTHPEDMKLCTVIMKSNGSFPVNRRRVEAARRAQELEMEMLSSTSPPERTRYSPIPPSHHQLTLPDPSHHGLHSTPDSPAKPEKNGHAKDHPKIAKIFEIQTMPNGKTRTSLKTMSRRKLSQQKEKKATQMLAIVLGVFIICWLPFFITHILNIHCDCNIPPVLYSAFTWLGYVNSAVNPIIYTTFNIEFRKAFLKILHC
test details: Dopamine D2 receptor (DRD2) small molecule antagonists, cell-based qHTS assay (AID 1963595); also: % is scaled to controls: 0 for no effect and ±100 for the full control effect
assay setup: HEK293-DRD2 cAMP HTRF antagonist mode; series mostly up to 92.4 µM
Results filed as inconclusive are left out. The source made the active and inactive calls. Calls follow the shape of the dose curve; as a rule, active = well fitted inhibition curve with a large enough effect in the signal ratio in the repeat runs, with a control signal flat; inconclusive = weak or mixed curves, or effect the other way; inactive = flat fitted curve, though single readings scatter; the % refers to the signal ratio.
attribute measured: activity change, negative = inhibition

| molecule | attribute measured | reported measurement |
| --- | --- | --- |
| CC(S)C(=O)NCC(=O)O (stereo unspecified) | activity change, negative = inhibition | inactive |
| C=C(C)[C@H]1CC=C(C)CC1 | activity change, negative = inhibition | inactive |
| O=C(Cl)c1ccc(C(=O)Cl)cc1 | activity change, negative = inhibition | inactive |
| CN(C)CCCNCCC#N | activity change, negative = inhibition | inactive |
| Cc1nc(C)c(C)nc1C | activity change, negative = inhibition | inactive |
| O=C1c2cccc(O)c2C(=O)c2c(O)cccc21 | activity change, negative = inhibition | inactive |
| O=S(=O)(O)c1ccccc1O | activity change, negative = inhibition | inactive |
| ON(Cc1ccccc1)Cc1ccccc1 | activity change, negative = inhibition | inactive |
| Nc1ccccc1S(=O)(=O)O | activity change, negative = inhibition | inactive |
| CCCCCCOC(=O)C(C)CC (stereo unspecified) | activity change, negative = inhibition | inactive |
| Cc1cc(C)c(N)c(Cl)c1 | activity change, negative = inhibition | inactive |
| CCC/C=C/C=O | activity change, negative = inhibition | inactive |
| CC[C@H](c1ccc(O)cc1)[C@@H](CC)c1ccc(O)cc1 | activity change, negative = inhibition | inactive |
| CCCCN=C(N)N=C(N)N | activity change, negative = inhibition | inactive |
| NCCNCCNCCN | activity change, negative = inhibition | inactive |
| ClC(c1ccccc1)(c1ccccc1)c1ccccc1 | activity change, negative = inhibition | inactive |
| C[C@@H]1NC(=O)[C@@H](N)CNC(=O)[C@H](C2CCNC(N)=N2)NC(=O)/C(=C/NC(N)=O)NC(=O)[C@H](CNC(=O)C[C@@H](N)CCCN)NC1=O (stereo partly specified) | activity change, negative = inhibition | -5.12% [at 0.348 µM] (inactive) |
| CCCCCCCCN(C)C | activity change, negative = inhibition | inactive |
| CC(=O)NCc1c(I)c(NC(C)=O)c(I)c(C(=O)O)c1I | activity change, negative = inhibition | inactive |
| C=CC(C)(O)CCC=C(C)C (stereo unspecified) | activity change, negative = inhibition | inactive |
| C=C(C)C(=O)NCCCN(C)C | activity change, negative = inhibition | inactive |
| O=Cc1ccc(F)cc1 | activity change, negative = inhibition | inactive |
| O=C(O)C1CCC(C(=O)O)CC1 (stereo unspecified) | activity change, negative = inhibition | inactive |
| Cc1ccc(C(=O)O)cc1 | activity change, negative = inhibition | inactive |
| CCCCCCCCCCCCOCCO | activity change, negative = inhibition | inactive |
| O=C(Oc1ccccc1)c1ccc(O)cc1 | activity change, negative = inhibition | inactive |
| O=c1c(-c2ccc(O)cc2)coc2cc(O)ccc12 | activity change, negative = inhibition | inactive |
| O=C1NC(=O)[C@@]2(CCOc3ccc(F)cc32)N1 | activity change, negative = inhibition | inactive |
| NC(=O)NC1N=C([O][Al])NC1=O (stereo unspecified) | activity change, negative = inhibition | inactive |
| CC1CCc2nccnc21 (stereo unspecified) | activity change, negative = inhibition | inactive |
| NCCc1ccc(O)c(O)c1 | activity change, negative = inhibition | inactive |
